Ref: patent US20240043435A1

# IC50 per record follows
Tested on: pSTAT5/GM-CSF
Experiment: pSTAT5/GM-CSF cellular assay (JAK2 selectivity)
Assay type: cell-based

Take a look at these entries with their results.
CC(=O)Nc1cc(Nc2ccc(F)c(S(C)(=O)=O)n2)c(-c2ccn(C)n2)cn1	> 10 µM
CC(=O)Nc1cc(Nc2cccc(S(C)(=O)=O)n2)c(-c2ccc(N3CCOC(C)(C)C3)cn2)cn1	0.61 µM
CC(=O)Nc1cc(Nc2cc(C)cc(S(C)(=O)=O)n2)c(-c2ccc(F)cn2)cn1	> 10 µM
CC(=O)Nc1cc(Nc2nc(S(C)(=O)=O)ccc2C2CCOCC2)c(-c2ccc3c(n2)OCC(C)(C)O3)cn1	> 10 µM
CC(=O)Nc1cc(Nc2cc(OC(C)C)cc(S(C)(=O)=O)n2)c(-c2ccn(CCO)n2)cn1	> 10 µM

Query: What does the record list as IC50 for `CC(=O)Nc1cc(Nc2cccc(S(C)(=O)=O)n2)c(-c2ccc(N3C[C@@H](C)O[C@@H](C)C3)cn2)cn1` ?
Response: 0.962 µM

Query: Try CC(=O)Nc1cc(Nc2cccc(S(C)(=O)=O)c2)c(-c2ccn(C3CCOC3)n2)cn1 (stereo not shown) next.
Response: > 10 µM
